Target: CAAX prenyl protease 1 (Saccharomyces cerevisiae (strain ATCC 204508 / S288c)) (UniProt P47154)
Sequence (P47154 whole entry, looked up): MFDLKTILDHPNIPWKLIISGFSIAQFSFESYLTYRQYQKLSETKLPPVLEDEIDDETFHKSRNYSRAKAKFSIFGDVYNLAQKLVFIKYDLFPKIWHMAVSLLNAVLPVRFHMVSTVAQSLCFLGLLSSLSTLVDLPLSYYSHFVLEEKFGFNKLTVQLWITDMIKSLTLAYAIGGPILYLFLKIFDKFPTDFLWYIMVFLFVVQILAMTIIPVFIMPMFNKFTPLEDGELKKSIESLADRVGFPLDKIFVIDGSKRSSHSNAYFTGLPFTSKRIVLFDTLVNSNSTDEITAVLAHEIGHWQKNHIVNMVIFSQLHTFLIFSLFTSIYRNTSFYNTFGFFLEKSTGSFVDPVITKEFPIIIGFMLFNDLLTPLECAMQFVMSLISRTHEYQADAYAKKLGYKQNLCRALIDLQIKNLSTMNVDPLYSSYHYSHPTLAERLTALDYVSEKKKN
Assay: Ste24 protease inhibitors, dose response, biochemical, S. cerevisiae, plate reader, cherry-pick (AID 488815)
Settings: yeast Ste24 protease activity; series mostly up to 10 µM
Potency and affinity values are given separately. Records with an inconclusive call do not appear. Activity calls are given as the source filed them. The rule behind the calls is not given here.
experimental-endpoint: outcome

1) CCOc1ccc(N(CC(=O)NC2CC3CCC2C3)S(=O)(=O)c2ccccc2)cc1 (stereo not drawn)	inactive
2) COc1ccc(C)cc1NC(=O)CN1C(=O)COc2ccc(S(=O)(=O)N3CCOCC3)cc21	inactive
3) CCOC(=O)c1cc(-c2ccccc2)sc1NC(=O)C(C)Sc1nnnn1C (stereo not drawn)	inactive

* * *

Target: CAAX prenyl protease 1 (Saccharomyces cerevisiae (strain ATCC 204508 / S288c)) (UniProt P47154)
Assay: Ste24 protease inhibitors, dose response, biochemical, S. cerevisiae, plate reader, cherry-pick (AID 488815)
Details: yeast Ste24 protease activity; series mostly up to 10 µM
Measured potencies and affinities stand elsewhere. Records with an inconclusive call do not appear. Calls of active or inactive are those of the source. The rule behind the calls is not given here.
experimental-endpoint: outcome

1) Clc1ccc(CN2CCc3c([nH]c4ccccc34)C2)cc1Cl	inactive
2) Cc1cc(C(=O)N/N=C/c2c3ccccc3cc3ccccc23)n[nH]1	inactive
3) CC(=O)Nc1ccc(Cl)cc1C1COC(=O)C1=N (configuration not stated)	inactive
4) COC(C/C=C/[C@H](O)[C@@H](C)OCc1ccccc1)OC	inactive
5) O=C(C(Cc1ccccc1)N1C(=O)c2ccccc2C1=O)N1c2ccccc2CCc2ccccc21 (configuration not stated)	inactive
6) CC1CCN(C(=O)c2cc3nc(-c4ccccc4)cc(-c4ccccc4)n3n2)CC1	inactive
7) CC(C)c1cccc(OCC(=O)Nc2ccc(S(=O)(=O)Nc3ccccn3)cc2)c1	inactive
8) O=C1CCCC(O)=C1N=Nc1ccc2ncsc2c1	inactive
9) Cc1ccc(OCCN2C(=O)C(=O)c3cc(C)ccc32)cc1	inactive
10) Cc1cccc(NC(=O)c2cc(S(=O)(=O)N3CCCCC3)c[nH]2)c1C	inactive
11) COc1ccc(OCC(=O)NS(=O)(=O)c2ccc(Cl)cc2)cc1	inactive
12) O=C(COC(=O)c1ccccc1Cc1ccccc1)NC1CCS(=O)(=O)C1 (configuration not stated)	inactive
13) O=C(COC(=O)c1ccc(S(=O)(=O)N2CCCC2)cc1)NCc1ccccc1	inactive
14) CCCCOC(=O)Nc1nc(C)c(C(=O)OCC)s1	inactive
15) COc1ccc(C(C(=O)NC2CCCCC2)N(C(=O)c2snc(C(N)=O)c2N)c2ccc(OC)cc2OC)cc1 (configuration not stated)	inactive
16) COc1ccc(/C=N/NC(=O)c2ccc(Cl)cc2)cc1COC(C)=O	inactive
17) CCOc1ccc(OCC)c(NC(=O)c2nnn(CC(=O)Nc3cc(C)cc(C)c3)c2N)c1	inactive
18) COc1cccc(-c2csc(N3CCN(C(=O)NC45CC6CC(CC(C6)C4)C5)CC3)n2)c1	inactive
19) CCn1cc(/C=C(\NC(=O)c2ccccc2)C(=O)N2CCOCC2)c2ccccc21	inactive
20) Nc1nonc1-n1nnc(C(=O)N/N=C/c2ccoc2)c1CSc1ccccc1	inactive
21) O=C(CCNC(=O)N1CC(=O)Nc2ccccc21)NCCc1cccc(F)c1	inactive
22) O=C(COc1ccccc1)Nc1cccc(-c2nc3cc4ccccc4cc3[nH]2)c1	inactive
